Test: in vitro
Assay type: cell-based, rat
Conditions: mouse, RAW 264.7 cells
Where a SMILES comes first, the peptide text is derived from it.
propertyMeasured: viability at 24 h

## Input Consider the compound CC(C)[C@H](NC(=O)[C@H](CCC(=O)O)NC(=O)[C@H](CO)NC(=O)[C@H](CCCCN)NC(=O)[C@H](Cc1c[nH]cn1)NC(=O)[C@H](C)NC(=O)[C@@H](N)CC(=O)O)C(=O)N[C@@H](C)C(=O)N[C@@H](Cc1c[nH]cn1)C(=O)N[C@@H](CCCNC(=N)N)C(=O)N[C@@H](Cc1ccccc1)C(=O)N[C@@H](CCCCN)C(N)=O [wAlb12] (H-DAHKSEVAHRFK-NH2) and give its recorded viability at 24 h.
## Output > 100%
